Entries annotated with measured recombinant UMI read abundance (log10)
- assay summary: recombinant UMI read abundance after kanamycin selection (control-corrected) (log10(CPM+1)); higher = more efficient recombination; extreme values may be limits of the assay; sequences stand for … in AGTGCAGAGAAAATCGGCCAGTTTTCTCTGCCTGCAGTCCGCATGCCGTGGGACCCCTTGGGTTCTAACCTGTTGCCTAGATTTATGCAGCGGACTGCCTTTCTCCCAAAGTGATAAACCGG…AGGTTGGTTTCACT; site = the 11-nt donor;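 note: IS621 bridge recombinase in Escherichia coli cells against a fixed T5 target plasmid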

[
  {
    "macromolecule sequence": "GGAGGGCCATGGACCGGTTTTCCCGGTAATCCGTATTTGGC (site GGAGGGCCTGC)",
    "recombinant UMI read abundance (log10)": 0
  },
  {
    "macromolecule sequence": "ACCATATCATGGACCGGTTTTCCCGGTAATCCGTATTTGCA (site ACCATATCTTG)",
    "recombinant UMI read abundance (log10)": 2.3
  },
  {
    "macromolecule sequence": "AAGGAATCATGGACCGGTTTTCCCGGTAATCCGTATTTGCG (site TAGGAATCTCG)",
    "recombinant UMI read abundance (log10)": 3.08
  },
  {
    "macromolecule sequence": "GTAAGCACATGGACCGGTTTTCCCGGTAATCCGTATTTGTA (site GTACGCACTTA)",
    "recombinant UMI read abundance (log10)": 0.0491
  },
  {
    "macromolecule sequence": "GTAAGGCCATGGACCGGTTTTCCCGGTAATCCGTATTTGAC (site GTAAGGCCTGT)",
    "recombinant UMI read abundance (log10)": 0
  },
  {
    "macromolecule sequence": "TATTCAACATGGACCGGTTTTCCCGGTAATCCGTATTTGCC (site TATTCAACTGG)",
    "recombinant UMI read abundance (log10)": 0.527
  },
  {
    "macromolecule sequence": "ATAGCATCATGGACCGGTTTTCCCGGTAATCCGTATTTGAC (site ATAGCATCTGT)",
    "recombinant UMI read abundance (log10)": 3.53
  },
  {
    "macromolecule sequence": "ACGGTAGCATGGACCGGTTTTCCCGGTAATCCGTATTTGCA (site ACAGTATCTTG)",
    "recombinant UMI read abundance (log10)": 2.05
  },
  {
    "macromolecule sequence": "CACAGATCATGGACCGGTTTTCCCGGTAATCCGTATTTGCT (site CACAGATCTAG)",
    "recombinant UMI read abundance (log10)": 2.32
  }
]
